- Tested on: Human papillomavirus type 1a protein E7 (residues 44-93)
- PROTOCOL_DESCRIPTION: HPV1a E7 fragment binders on microarrays, primary screen, biochemical, small-molecule microarray, residues 44-93, 635 nm fluorescence (AID 1108);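 note: E7 fragment applied at 1 µg/mL in TBST for 1 h at 4 C; score combines spot fluorescence with its signal to noise ratio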
- CONDITION_SUMMARY: small-molecule microarray binding, fluorescence 635 nm; higher = more signal
Grouping by measured composite z-score is done with the following cut points: lower level = under 0.04, middle level = from 0.04 up to 1, upper level = 1 and over

Query string: Input CN(C)CCCC[C@@H]1NC(=O)[C@H]2C[C@@H](C(=O)NCCCCCCN)[C@@H](c3ccc(O)cc3)N2C1=O ; output its category
Result string: upper level

Query string: Note: place this compound into its band. Item: [N-]=[N+]=Nc1ccccc1[C@@H]1OC(c2ccc(OCCCO)cc2)=N[C@]1(CCS(=O)(=O)c1ccccc1)C(N)=O
Result string: upper level

Query string: # classify by composite z-score band: COc1cc2c(cc1O)C(c1cccs1)N(C)CC2 (centres undefined)
Result string: lower level

Query string: Which of the defined bands does the recorded composite z-score of C=C(C)[C@@H]1CC=C(C(O)C2C=CC3C(=O)N(c4ccccc4)C(=O)C3N2Nc2ccccc2)CC1 (some centres undefined) sit within?
Result string: middle level

Query string: Tag the class for COc1ccc(C#Cc2ccc3c(c2)[C@]2(C(=O)N3)[C@H](c3ccccc3OCCO)N3[C@H](c4ccccc4)[C@H](c4ccccc4)OC(=O)[C@H]3[C@@H]2C(=O)Nc2nc3ccccc3s2)cc1
Result string: upper level

Query string: Place this compound in its band: COc1ccc([Si](C)(C)[C@H]2[C@H](CCO)O[C@@]3(C(=O)N(Cc4ccc(N(C=O)c5ccccc5)cc4)c4ccccc43)[C@@H]2C)cc1
Result string: lower level

Query string: State the class of the compound shown: C=C(COC)/C(=C/C[C@@H](OC(=O)c1ccncc1)c1ccc(CO)o1)c1cc(C(=O)OC)ccc1OC
Result string: upper level

Query string: Any idea which band C=CCOC(=O)[C@H]1[C@@H]2C(=O)O[C@@H](c3ccccc3)[C@@H](c3ccccc3)N2[C@@H](c2ccc(OCCOC(=O)[C@H]3C[C@H]4C(=O)N[C@@H](CCCCNC(C)=O)C(=O)N4[C@H]3c3ccc(O)cc3)cc2)[C@]12C(=O)Nc1ccc(I)cc12 is in?
Result string: middle level

Query string: Exercise: read the entry C[N+](C)(C)CCCCNC(=O)[C@H]1C[C@H]2C(=O)N3CCC[C@H]3C(=O)N2[C@H]1c1cccc(OCCO)c1 and state which class it falls under.
Result string: lower level

Query string: Please classify: O=C1C[C@@](C(=O)NCCN2CCOCC2)(c2ccc([N+](=O)[O-])cc2)[C@@H](c2ccc(CO)cc2I)N1CC12CC3CC(CC(C3)C1)C2
Result string: upper level

Query string: Dear colleague, I would appreciate it if you could identify the bin for CN(C)C(=O)[C@@]1(CCS(=O)(=O)c2ccccc2)COC(c2ccc(OCCCO)cc2)=N1 and reply at your convenience.
Result string: upper level

Query string: Into which bin does this compound go? CN1C(=O)C2C=CC(C(O)c3ccc([N+](=O)[O-])cc3)N(N3CCCCC3)C2C1=O (centres undefined)
Result string: upper level

Query string: Hello team, could you let me know which band the following compound falls into: Cc1ccc(S[C@]2(C(=O)NCCCN(C)C)CC(=O)N(Cc3cc(C(F)(F)F)cc(C(F)(F)F)c3)[C@@H]2c2ccc(CO)cc2I)cc1
Result string: lower level
